All figures here come from ChEMBL document CHEMBL4808209.

Catalogue of compounds with associated log10(AUC at 24 h)
Assay: AUC in cynomolgus monkey at 2 mg/kg, po or 0.5 mg/kg, iv administered as cassette dose measured after 24 hrs
Assay type: ADME, organism-based, Macaca fascicularis
Parameters: dose 2 mg/kg, time 24 hrs
Conditions: in vivo
endpoint.label: log10(AUC at 24 h) (log10 of the value in µM·h)

compound.smiles	log10(AUC at 24 h)
COc1cc(OC)c(F)c(N2Cc3cnc4[nH]c(C(=O)N5CCN(C)CC5)cc4c3N(C)C2=O)c1F	0.44
COc1cc(OC)c(F)c(N2Cc3cnc4c(c3N(C)C2=O)CC(=O)N4)c1F	0.32
COc1cc(OC)c(F)c(N2Cc3cnc4[nH]ncc4c3N(C)C2=O)c1F	0.25
CCN1C(=O)N(c2c(F)c(OC)cc(OC)c2F)Cc2cnc3[nH]c(CN4CCOCC4)cc3c21	0.79
CCN1C(=O)N(c2c(F)c(OC)cc(OC)c2F)Cc2cnc3c(c21)CC(=O)N3	1.08
CCN1CCN(Cc2cc3c4c(cnc3[nH]2)CN(c2c(F)c(OC)cc(OC)c2F)C(=O)N4C)CC1	0.77
COc1cc(OC)c(F)c(N2Cc3cnc4[nH]ccc4c3N(C3CC3)C2=O)c1F	-0.01

###

Test: Clearance in cynomolgus monkey at 2 mg/kg, po or 0.5 mg/kg, iv administered as cassette dose measured after 24 hrs relative to hepatic blood flow
Type: ADME, organism-based, Macaca fascicularis
Conditions: in vivo

compound.smiles	CL (%)
COc1cc(OC)c(F)c(N2Cc3cnc4[nH]ncc4c3N(C)C2=O)c1F	21
COc1cc(OC)c(F)c(N2Cc3cnc4c(c3N(C)C2=O)CC(=O)N4)c1F	12
CCN1CCN(Cc2cc3c4c(cnc3[nH]2)CN(c2c(F)c(OC)cc(OC)c2F)C(=O)N4C)CC1	8
CCN1C(=O)N(c2c(F)c(OC)cc(OC)c2F)Cc2cnc3c(c21)CC(=O)N3	11
COc1cc(OC)c(F)c(N2Cc3cnc4[nH]c(C(=O)N5CCN(C)CC5)cc4c3N(C)C2=O)c1F	17
CCN1C(=O)N(c2c(F)c(OC)cc(OC)c2F)Cc2cnc3[nH]c(CN4CCOCC4)cc3c21	8
COc1cc(OC)c(F)c(N2Cc3cnc4[nH]ccc4c3N(C3CC3)C2=O)c1F	21

###

Test: Oral bioavailability in cynomolgus monkey at 2 mg/kg administered as cassette dose measured after 24 hrs
Type: ADME, organism-based, Macaca fascicularis
Settings: in vivo
Catalogue of compounds with associated bioavailability

compound.smiles	bioavailability
CCN1CCN(Cc2cc3c4c(cnc3[nH]2)CN(c2c(F)c(OC)cc(OC)c2F)C(=O)N4C)CC1	26%
COc1cc(OC)c(F)c(N2Cc3cnc4[nH]ccc4c3N(C)C2=O)c1F	15%
COc1cc(OC)c(F)c(N2Cc3cnc4[nH]c(CN5CCOCC5)cc4c3N(C)C2=O)c1F	53%
CCN1C(=O)N(c2c(F)c(OC)cc(OC)c2F)Cc2cnc3[nH]ncc3c21	16%
COc1cc(OC)c(F)c(N2Cc3cnc4[nH]c(C(=O)N(C)C)cc4c3N(C)C2=O)c1F	1%
COc1cc(OC)c(F)c(N2Cc3cnc4[nH]ccc4c3N(C3CC3)C2=O)c1F	12%
CCN1C(=O)N(c2c(F)c(OC)cc(OC)c2F)Cc2cnc3c(c21)CC(=O)N3	73%
COc1cc(OC)c(F)c(N2Cc3cnc4[nH]c(C(=O)N5CCN(C)CC5)cc4c3N(C)C2=O)c1F	28%
COc1cc(OC)c(F)c(N2Cc3cnc4c(c3N(C)C2=O)CC(=O)N4)c1F	24%

###

Form: system (Tyrosine-protein kinase JAK2 (Homo sapiens, UniProt O60674)), quantity (pIC50), values below.
pIC50: −log10 of the molar value.

molecule	pIC50
COc1cc(OC)cc(N2Cc3cnc4[nH]ccc4c3N(C)C2=O)c1	< 5.00
COc1cc(CCc2cnc3[nH]ccc3c2)cc(OC)c1	< 5.00
COc1ccc2nc(N3CCC(C(CC#N)n4cc(-c5ncnc6[nH]ccc56)cn4)CC3)sc2c1 (stereo not drawn)	> 9.00

###

Experiment: Volume of distribution at steady state in cynomolgus monkey at 2 mg/kg, po or 1 mg/kg, iv administered as cassette dose measured after 24 hrs
Assay type: ADME, organism-based, Macaca fascicularis
Conditions: in vivo, read-out: Vdss
Catalogue of compounds with associated Vd

compound.smiles	Vd, L/kg
COc1cc(OC)c(F)c(N2Cc3cnc4[nH]c(CN5CCOCC5)cc4c3N(C)C2=O)c1F	0.74
COc1cc(OC)c(F)c(N2Cc3cnc4[nH]c(C(=O)N(C)C)cc4c3N(C)C2=O)c1F	0.27
CCN1C(=O)N(c2c(F)c(OC)cc(OC)c2F)Cc2cnc3[nH]ncc3c21	0.25
COc1cc(OC)c(F)c(N2Cc3cnc4[nH]ccc4c3N(C)C2=O)c1F	0.32
COc1cc(OC)c(F)c(N2Cc3cnc4[nH]ccc4c3N(CCO)C2=O)c1F	0.09
COc1cc(OC)c(F)c(N2Cc3cnc4[nH]cnc4c3N(C)C2=O)c1F	0.27

###

Biological target: CYP3A4 (Homo sapiens, UniProt P08684)
Sequence (P08684 whole entry): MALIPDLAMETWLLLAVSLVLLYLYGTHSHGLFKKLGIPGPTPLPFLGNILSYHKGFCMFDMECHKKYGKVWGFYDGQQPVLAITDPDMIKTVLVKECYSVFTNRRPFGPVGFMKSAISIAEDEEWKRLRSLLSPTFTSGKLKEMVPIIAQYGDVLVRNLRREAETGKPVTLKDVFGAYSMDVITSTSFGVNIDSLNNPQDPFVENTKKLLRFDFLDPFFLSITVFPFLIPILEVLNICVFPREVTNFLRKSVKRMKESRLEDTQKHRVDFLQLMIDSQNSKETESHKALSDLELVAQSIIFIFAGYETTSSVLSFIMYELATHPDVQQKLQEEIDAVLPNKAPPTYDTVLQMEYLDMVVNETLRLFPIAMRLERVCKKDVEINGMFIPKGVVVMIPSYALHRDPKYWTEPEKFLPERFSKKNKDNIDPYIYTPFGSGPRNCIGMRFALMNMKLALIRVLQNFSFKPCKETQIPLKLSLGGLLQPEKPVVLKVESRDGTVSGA
Experiment: Inhibition of CYP3A4 in human liver microsomes using midazolam or testosterone as substrate substrate in presence of NADPH by LC-MS/MS analysis
Format: ADME
Conditions: human, liver microsomes, probe midazolam or testosterone
endpoint.label: IC50

compound.smiles	test.value
CCN1C(=O)N(c2c(F)c(OC)cc(OC)c2F)Cc2cnc3[nH]c(CN4CCOCC4)cc3c21	> 25 µM

###

Molecular target: CYP1A2 (Homo sapiens)
Sequence (P05177 whole entry): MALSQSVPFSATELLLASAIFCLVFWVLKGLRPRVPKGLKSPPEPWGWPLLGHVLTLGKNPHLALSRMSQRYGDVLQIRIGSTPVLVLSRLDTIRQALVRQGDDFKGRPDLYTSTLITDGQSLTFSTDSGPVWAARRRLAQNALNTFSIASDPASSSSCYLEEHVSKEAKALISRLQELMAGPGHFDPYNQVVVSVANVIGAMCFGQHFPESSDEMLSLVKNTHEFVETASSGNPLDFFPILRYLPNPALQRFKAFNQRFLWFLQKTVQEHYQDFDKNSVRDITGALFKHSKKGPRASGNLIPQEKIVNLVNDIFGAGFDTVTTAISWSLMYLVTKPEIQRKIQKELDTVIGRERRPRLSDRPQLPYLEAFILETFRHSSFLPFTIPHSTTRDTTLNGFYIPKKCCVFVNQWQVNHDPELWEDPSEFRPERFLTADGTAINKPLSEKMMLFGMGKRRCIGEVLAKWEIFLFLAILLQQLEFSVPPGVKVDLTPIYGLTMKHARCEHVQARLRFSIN
Assay: Inhibition of CYP1A2 in human liver microsomes using 7-ethoxyresorufin as substrate substrate in presence of NADPH by LC-MS/MS analysis
Type: ADME
Conditions: human, liver microsomes, probe 7-ethoxyresorufin

compound.smiles	IC50
CCN1C(=O)N(c2c(F)c(OC)cc(OC)c2F)Cc2cnc3[nH]c(CN4CCOCC4)cc3c21	> 25 µM

###

Catalogue of compounds with associated CL
Test: Clearance in Sprague-Dawley rat at 2 mg/kg, po or 1 mg/kg, iv administered as cassette dose measured after 24 hrs relative to hepatic blood flow
Assay type: ADME, organism-based
Settings: in vivo
endpoint.label: CL (%)

compound.smiles	endpoint.label	test.value
COc1cc(OC)c(F)c(N2Cc3cnc4[nH]ccc4c3N(C3CC3)C2=O)c1F	CL	31
COc1cc(OC)c(F)c(N2Cc3cnc4[nH]cnc4c3N(C)C2=O)c1F	CL	29
CCN1CCC(Cc2cc3c4c(cnc3[nH]2)CN(c2c(F)c(OC)cc(OC)c2F)C(=O)N4C)CC1	CL	51
COc1cc(OC)c(F)c(N2Cc3cnc4c(c3N(C)C2=O)CC(=O)N4)c1F	CL	34
CCN1C(=O)N(c2c(F)c(OC)cc(OC)c2F)Cc2cnc3[nH]ncc3c21	CL	20
COc1cc(OC)c(F)c(N2Cc3cnc4[nH]ccc4c3N(CCN3CCN(C)CC3)C2=O)c1F	CL	51
COc1cc(OC)c(F)c(N2Cc3cnc4[nH]ccc4c3N(C3CCN(C)CC3)C2=O)c1F	CL	21
CCN1CCN(CCc2cc3c4c(cnc3[nH]2)CN(c2c(F)c(OC)cc(OC)c2F)C(=O)N4C)CC1	CL	64
COc1cc(OC)c(F)c(N2Cc3cnc4[nH]ccc4c3N(C)C2=O)c1F	CL	10

###

Catalogue of molecules with associated CL
Assay: Clearance in Sprague-Dawley rat at 2 mg/kg, po or 1 mg/kg, iv administered as cassette dose measured after 24 hrs relative to hepatic blood flow
Format: ADME, organism-based
Conditions: in vivo
endpoint.label: CL (%)

compound.smiles	test.value
COc1cc(OC)c(F)c(N2Cc3cnc4[nH]c(C(=O)N(C)C)cc4c3N(C)C2=O)c1F	3
COc1cc(OC)c(F)c(N2Cc3cnc4[nH]c(C(=O)N5CCN(C)CC5)cc4c3N(C)C2=O)c1F	23
COc1cc(OC)c(F)c(N2Cc3cnc4[nH]ncc4c3N(C)C2=O)c1F	27
COc1cc(OC)c(F)c(N2Cc3cnc4[nH]c(C5CCN(C)CC5)cc4c3N(C)C2=O)c1F	45
CCN1C(=O)N(c2c(F)c(OC)cc(OC)c2F)Cc2cnc3[nH]c(CN4CCOCC4)cc3c21	31
CCN1CCN(Cc2cc3c4c(cnc3[nH]2)CN(c2c(F)c(OC)cc(OC)c2F)C(=O)N4C)CC1	51
